# assay_target: T1, biotinylated hBLyS-ECD (human, UniProt Q9Y275 134-285, biotinylated with Biotin-X-X-NHS (molar ratio 7:1); sites not stated)
# T1 construct: also called biotinylated immunogen; biotinylated hBLvS-ECD
# T1 sequence (Q9Y275 134-285): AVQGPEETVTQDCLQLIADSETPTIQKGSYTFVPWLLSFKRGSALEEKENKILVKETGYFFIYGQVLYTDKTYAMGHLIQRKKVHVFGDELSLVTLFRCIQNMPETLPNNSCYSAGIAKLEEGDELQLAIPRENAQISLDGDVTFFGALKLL
# method_summary: BAFF R-coated ELISA, biotinylated hBLyS-ECD bound in presence of antibody 100 nM
measured_quantity: OD450 nm (OD450 nm)
Give bare numbers, in OD450 nm.

Use the examples below as a reference point.
INSERT INTO results (binder, measured_quantity, observed) VALUES
  ('c97A3C2H4 (antibody, V domains shown, also called chimeric antibody c97A3C2H4) VH: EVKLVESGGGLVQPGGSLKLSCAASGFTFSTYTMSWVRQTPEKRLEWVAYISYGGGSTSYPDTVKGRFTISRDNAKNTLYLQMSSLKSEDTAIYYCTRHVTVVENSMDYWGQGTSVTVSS VL: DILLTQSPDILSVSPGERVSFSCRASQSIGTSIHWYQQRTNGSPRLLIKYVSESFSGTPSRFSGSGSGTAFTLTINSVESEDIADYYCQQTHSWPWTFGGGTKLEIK', 'OD450 nm', 0.474),
  ('c8E7D9C7F5 (antibody, V domains shown, also called chimeric antibody c8E7D9C7F5) VH: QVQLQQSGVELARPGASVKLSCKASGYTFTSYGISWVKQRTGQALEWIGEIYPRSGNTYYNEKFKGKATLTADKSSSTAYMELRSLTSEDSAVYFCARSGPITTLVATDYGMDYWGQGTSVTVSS VL: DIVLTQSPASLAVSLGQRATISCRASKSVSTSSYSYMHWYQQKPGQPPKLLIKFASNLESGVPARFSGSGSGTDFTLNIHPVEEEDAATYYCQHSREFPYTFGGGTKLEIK', 'OD450 nm', 0.53),
  ('h97A3C2H4-9 (antibody, V domains shown, Humanized antibody; VH3-7/JH6 CDR-grafted with A93T, G44R; also called humanized BLyS antibody h97A3C2H4 variant 9 (VH.1b / Vk.1d)) VH: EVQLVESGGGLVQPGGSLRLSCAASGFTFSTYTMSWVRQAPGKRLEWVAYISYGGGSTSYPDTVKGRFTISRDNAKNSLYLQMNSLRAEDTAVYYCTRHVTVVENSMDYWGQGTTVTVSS VL: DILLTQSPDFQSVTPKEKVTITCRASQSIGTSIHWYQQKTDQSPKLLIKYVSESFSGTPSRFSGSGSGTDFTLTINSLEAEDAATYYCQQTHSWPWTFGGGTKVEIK', 'OD450 nm', 0.506);

// OD450 nm lookup, key: h8E7D9C7F5-1 (antibody, V domains shown, Humanized antibody; also called humanized BLyS antibody h8E7D9C7F5 variant 1 (VH.1 / Vk.1)) VH: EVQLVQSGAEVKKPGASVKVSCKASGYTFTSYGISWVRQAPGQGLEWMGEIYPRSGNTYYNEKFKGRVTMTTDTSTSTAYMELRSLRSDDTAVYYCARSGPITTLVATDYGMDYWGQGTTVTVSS VL: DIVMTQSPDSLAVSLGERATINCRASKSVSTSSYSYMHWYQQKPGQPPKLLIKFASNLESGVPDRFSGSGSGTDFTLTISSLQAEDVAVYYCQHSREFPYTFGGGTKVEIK 0.45

Where do these numbers come from? They come from patent US20210347873A1.
